test system: UO-31 renal; assay: NCI tumour cell line growth inhibition, 48 h
OUTCOME_MEASURE: TGI

Below, each entry is followed by its recorded TGI result.
* CC1=NCC[N+]1(CCc1ccccc1)Cc1ccccc1 (centres undefined) | > 100 µM
* COC(=O)C1=C(OC(=O)c2ccccc2)C(C(=O)OC)[C@]2(O)[C@@H](C(=O)OC)C1CC(c1ccccc1OC)[C@@H]2C(=O)OC (some centres undefined) | 50.5 µM
* Cc1ccc(NC(=O)/C(CC2N=c3c(ccc4c(O)c5ccccc5c(O)c34)=NC2O)=N/NC(C)(C)C)cc1 (centres undefined) | 17.5 µM
* CN(C)c1[se]nc2c1c(=O)n(C)c(=O)n2C | > 100 µM
* CCCc1nc(N)nc(C(=O)Nc2cccc(C(F)(F)F)c2)c1CC | > 100 µM

Ask: Specify the recorded TGI for CC(=O)OC1CC2CC(=O)CC1N2C (centres undefined) , system: UO-31 renal.
Reply: > 100 µM

Ask: For UO-31 renal, give the measured TGI of the entry Cc1c([C@H](C(Cl)Cl)[C@H](O)[C@H]2C[C@H](C)C(=O)O2)ccc2c1C(=O)[C@H]1[C@H]2C[C@@H](Br)[C@@]23O[C@@H](CO[C@H]2O)CC13C (some centres undefined)
Reply: > 50 µM

Ask: Report TGI from UO-31 renal testing of `COc1cc(Nc2nc3ccccc3n3cccc23)cc(OC)c1OC`
Reply: > 100 µM

Ask: Fill in: TGI on UO-31 renal, entry `O=C1O[C@@H](c2ccccc2)C[C@H]1CN1CCOCC1`
Reply: > 100 µM

###

test system: CCRF-CEM leukemia; assay: NCI tumour cell line growth inhibition, 48 h; in the data active = GI50 below about 0.43 µM; inactive = the rest
Can you answer with just one of these options? active, inactive

* Cn1c(=O)n(CCCO)c(=O)c2c1nc(Oc1cccc(OC(F)(F)F)c1)n2Cc1ccc(Cl)cc1 | inactive
* CCOC(=O)/C=C/C1=C(c2ccsc2)c2ccc(OC)cc2CC1 | active
* COc1ncc(-c2ccc3nccc(C#CCCCCC(=O)O)c3c2)cc1NS(=O)(=O)c1ccc(F)cc1F | inactive
* COc1cc(C(=O)c2c(-c3ccccc3)oc3c(OC)cccc23)cc(OC)c1O | active
* COc1cc(/C=C/C(=O)c2ccc(Nc3nc(Nc4ccc(F)cc4)nc(Nc4ccc(Cl)cc4)n3)cc2)cc(OC)c1OC | inactive
* O=C1C(Cl)=C(Nc2cccc(O)c2)C(=O)N1CCc1ccccc1 | inactive

Ask: Hi, sorry to bother you, what did the test record for `O=C(/C=C/c1cc2ccccc2[nH]c1=O)c1ccc(Cl)cc1` ?
Reply: inactive

Ask: How did this test come out for C=C1CC2(OC1=O)C(=O)N(C)c1ccc(I)cc12 (stereo not given) ?
Reply: inactive

Ask: Answer briefly: the call reported for `O=C(Nc1ccc(-n2cc(-c3ccncc3)c(-c3ccc(O)c(Cl)c3)n2)cc1)c1cc(C(F)(F)F)cc(C(F)(F)F)c1` in this assay.
Reply: inactive

Ask: How did this test come out for `COc1ccc(-c2c(-c3cc(OC)c(OC)c(OC)c3)nc3sc(C4CC4)nn23)cc1OC` ?
Reply: inactive

###

tested on: T-47D breast; assay: NCI tumour cell line growth inhibition, 48 h
Each entry below carries its reported GI50.

Check out these entries, answers already filled in.
* COc1cc(/C=C/C(=O)Nc2ccc3c(c2)/C(=C\c2cccn2C)C(=O)N3)cc(OC)c1OC | 1590 nM
* C=C1c2c(C)nn(-c3ccc(OC)cc3)c2N(C)C23C[C@@H]1C1(C)c4c(C)nn(-c5ccc(OC)cc5)c4N(C)C(C)(C[C@H]12)C3 (stereo not given in full) | 1810 nM
* Oc1ccc(Nc2nc3ccccc3c3occc23)cc1 | 17000 nM
* O=[N+]([O-])c1ccc(C(Br)c2ccc([N+](=O)[O-])cc2)cc1 | 1690 nM

Read the next record carefully.
Ask: Look up and report measured GI50 for this entry: `COc1cc(C(=O)c2c(-c3ccccc3)oc3c(OC)cccc23)cc(OC)c1O`
Reply: 1200 nM

Data origin: PubChem BioAssay (NCI)
